Target: SETD2(1434-1711) (Homo sapiens, UniProt Q9BYW2)
Construct: SETD2 (1434-1711) Assay; catalogue N/A
Test: SETD2 (1434-1711) assay
Assay type: biochemical
Conditions: read-out: SETD2 (1434-1711)
Collected IC50 values appear next to each entry.

compound | quantity | readout value
Cc1cccc2cc(C(=O)N3CCCC(NC(=O)CCN)C3)[nH]c12 (stereo not drawn) | IC50 | > 200 µM
Cc1cccc2cc(C(=O)NCc3ccc(CN4CCOCC4)cc3)[nH]c12 | IC50 | > 200 µM

Let's switch to this compound now.
Which IC50 is reported with SETD2(1434-1711) (Homo sapiens, UniProt Q9BYW2) for this entry: Cc1cccc2cc(C(=O)NCc3ncnn3C)[nH]c12 ?
> 200 µM

###

Molecular target: SETD2(1434-1711) (Homo sapiens)
Construct: SETD2 (1434-1711) Assay; catalogue N/A
Experiment: SETD2 (1434-1711) assay
Assay type: biochemical
Conditions: read-out: SETD2 (1434-1711)
Collected pIC50 values appear next to each entry.
Field pIC50 (float): negative decimal logarithm of the concentration in molar.

Example compounds with recorded pIC50:
compound | assay system | pIC50
CC(=O)N1CCCN(C2CCCC(NC(=O)c3cc4c(F)ccc(C)c4[nH]3)C2)CC1 (centres unmarked) | SETD2(1434-1711) (Homo sapiens) | 7.22
Cc1ccc(F)c2cc(C(=O)Nc3cccc(N4CCC5(CCCN5C)CC4)c3)[nH]c12 | SETD2(1434-1711) (Homo sapiens) | 7.70
Cc1ccc(F)c2cc(C(=O)Nc3cccc(-c4ccn(C)n4)c3)[nH]c12 | SETD2(1434-1711) (Homo sapiens) | 6.70

Let's switch to this compound now.
Which pIC50 is reported with SETD2(1434-1711) (Homo sapiens) for this entry: Cc1cccc2cc(C(=O)NC(c3cccc(F)c3)C(F)(F)F)[nH]c12 (centres unmarked) ?
4.73

###

Biological target: SETD2(1434-1711) (Homo sapiens, UniProt Q9BYW2)
Construct: SETD2 (1434-1711) Assay; catalogue N/A
Sequence (Q9BYW2 1434-1711): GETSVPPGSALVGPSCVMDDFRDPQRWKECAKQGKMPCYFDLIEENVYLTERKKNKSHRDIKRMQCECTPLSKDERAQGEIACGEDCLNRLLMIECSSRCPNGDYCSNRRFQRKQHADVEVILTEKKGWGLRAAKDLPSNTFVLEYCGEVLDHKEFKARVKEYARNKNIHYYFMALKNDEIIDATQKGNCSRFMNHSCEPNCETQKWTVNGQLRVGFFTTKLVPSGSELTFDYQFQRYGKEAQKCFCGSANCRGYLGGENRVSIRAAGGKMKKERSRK
Experiment: SETD2 (1434-1711) assay
Type: biochemical
Conditions: read-out: SETD2 (1434-1711)
pIC50: −log10 of the molar value.
Collected pIC50 values appear next to each entry.

Example compounds with recorded pIC50:
compound | assay system | pIC50
Cc1cccc2cc(C(=O)Nc3cn4ccccc4n3)[nH]c12 [compound 796] | SETD2(1434-1711) (Homo sapiens, UniProt Q9BYW2) | < 3.70
Cc1cccc2cc(C(=O)NCCN3CCOCC3)[nH]c12 [compound 746] | SETD2(1434-1711) (Homo sapiens, UniProt Q9BYW2) | < 3.70

Which pIC50 is reported with SETD2(1434-1711) (Homo sapiens, UniProt Q9BYW2) for this entry: Cc1cccc2cc(C(=O)N[C@H]3C[C@@H](CO)C3)[nH]c12 [compound 759] ?
< 3.70

Which pIC50 is reported with SETD2(1434-1711) (Homo sapiens, UniProt Q9BYW2) for this entry: Cc1ccc(F)c2cc(C(=O)Nc3cnc(C4CCN(C)CC4)[nH]3)[nH]c12 [compound 562] ?
< 5.00
